Molecular target: Ephrin type-B receptor 4 (Homo sapiens)
Sequence (P54760 whole entry, the tested form may be a part): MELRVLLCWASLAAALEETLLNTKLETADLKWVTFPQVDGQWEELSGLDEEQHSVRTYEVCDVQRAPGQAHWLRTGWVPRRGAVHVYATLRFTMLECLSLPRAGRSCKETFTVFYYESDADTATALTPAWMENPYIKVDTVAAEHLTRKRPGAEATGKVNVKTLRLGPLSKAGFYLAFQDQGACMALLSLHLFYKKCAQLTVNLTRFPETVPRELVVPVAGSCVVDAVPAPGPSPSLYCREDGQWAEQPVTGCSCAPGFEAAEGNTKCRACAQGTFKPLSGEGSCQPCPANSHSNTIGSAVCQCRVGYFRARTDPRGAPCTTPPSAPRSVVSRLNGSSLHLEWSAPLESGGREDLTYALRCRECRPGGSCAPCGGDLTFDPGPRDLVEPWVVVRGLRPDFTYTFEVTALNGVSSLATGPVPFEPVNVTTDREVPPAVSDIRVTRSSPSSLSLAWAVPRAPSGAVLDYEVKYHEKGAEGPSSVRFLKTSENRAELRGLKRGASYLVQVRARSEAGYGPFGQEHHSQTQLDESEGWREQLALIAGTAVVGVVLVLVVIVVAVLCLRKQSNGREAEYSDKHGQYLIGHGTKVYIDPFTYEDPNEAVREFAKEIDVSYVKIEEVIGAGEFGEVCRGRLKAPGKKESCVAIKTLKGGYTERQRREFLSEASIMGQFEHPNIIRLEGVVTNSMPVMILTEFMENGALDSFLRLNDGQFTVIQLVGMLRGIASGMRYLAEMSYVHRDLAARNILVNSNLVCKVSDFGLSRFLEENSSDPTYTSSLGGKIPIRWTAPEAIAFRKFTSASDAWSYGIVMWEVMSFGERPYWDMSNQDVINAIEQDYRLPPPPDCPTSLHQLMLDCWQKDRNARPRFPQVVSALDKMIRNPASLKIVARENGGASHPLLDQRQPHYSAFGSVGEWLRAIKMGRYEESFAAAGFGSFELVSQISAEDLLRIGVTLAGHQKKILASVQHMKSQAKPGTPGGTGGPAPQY
Test: Displacement of ephrin-B1-Fc from EphB4 receptor Fc ectodomain (unknown origin) after 1 hr by ELISA
outcome_measure: pIC50
Just the number, please; pIC50 means minus log10 of the concentration in mol/L.

Requested field: pIC50. Item: C[C@H](CCC(=O)N[C@@H](Cc1c[nH]c2ccccc12)C(=O)O)[C@H]1CC[C@H]2[C@@H]3CC[C@@H]4C[C@H](O)CC[C@]4(C)[C@H]3CC[C@]12C
5.36

* * *

Documented pIC50 across a set of compounds
Target: Ephrin type-A receptor 2 (Homo sapiens, UniProt P29317)
Sequence (P29317 whole entry): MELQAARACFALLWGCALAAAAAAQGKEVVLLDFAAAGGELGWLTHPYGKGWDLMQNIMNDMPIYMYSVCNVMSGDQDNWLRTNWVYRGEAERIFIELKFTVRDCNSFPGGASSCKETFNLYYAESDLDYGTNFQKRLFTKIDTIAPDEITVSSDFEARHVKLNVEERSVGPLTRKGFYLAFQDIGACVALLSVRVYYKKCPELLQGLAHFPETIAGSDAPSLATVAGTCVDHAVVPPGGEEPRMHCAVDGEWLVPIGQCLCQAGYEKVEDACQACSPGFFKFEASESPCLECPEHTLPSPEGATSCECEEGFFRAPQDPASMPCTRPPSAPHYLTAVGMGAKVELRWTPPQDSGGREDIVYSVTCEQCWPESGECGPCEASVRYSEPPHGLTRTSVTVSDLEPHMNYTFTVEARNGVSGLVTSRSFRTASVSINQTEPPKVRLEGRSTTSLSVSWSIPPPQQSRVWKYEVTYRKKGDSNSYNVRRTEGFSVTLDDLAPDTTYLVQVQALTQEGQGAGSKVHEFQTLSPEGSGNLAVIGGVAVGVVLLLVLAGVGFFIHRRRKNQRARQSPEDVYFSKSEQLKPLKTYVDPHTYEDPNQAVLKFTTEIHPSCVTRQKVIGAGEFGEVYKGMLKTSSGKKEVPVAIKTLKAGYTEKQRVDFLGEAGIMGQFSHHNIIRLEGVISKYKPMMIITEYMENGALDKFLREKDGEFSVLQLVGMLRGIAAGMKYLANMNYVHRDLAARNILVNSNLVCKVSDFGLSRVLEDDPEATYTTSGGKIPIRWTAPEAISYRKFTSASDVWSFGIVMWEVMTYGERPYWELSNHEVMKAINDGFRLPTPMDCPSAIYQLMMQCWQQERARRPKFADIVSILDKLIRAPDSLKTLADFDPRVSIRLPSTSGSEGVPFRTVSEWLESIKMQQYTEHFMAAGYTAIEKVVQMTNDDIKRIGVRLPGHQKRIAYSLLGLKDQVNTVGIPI
Assay: Inhibition of ephrin-A1-Fc binding to EphA2-Fc receptor (unknown origin) after 1 hr by ELISA
pIC50: −log10 of the molar value.

Worked cases, answers included:
[[record]]
compound = "C[C@H](CCC(=O)NCC(=O)O)[C@H]1CC[C@H]2[C@@H]3CC[C@@H]4C[C@H](O)CC[C@]4(C)[C@H]3CC[C@]12C [LITHOGLYCOCHOLATE]"
outcome_measure = "pIC50"
observed_measurement = 4.31

[[record]]
compound = "C[C@H](CCC(=O)N[C@@H](CC(=O)O)C(=O)O)[C@H]1CC[C@H]2[C@@H]3CC[C@@H]4C[C@H](O)CC[C@]4(C)[C@H]3CC[C@]12C"
outcome_measure = "pIC50"
observed_measurement = "< 3.50"


// switching to the query compound
Requested field: pIC50. Item: C[C@H](CCC(=O)N[C@@H](CC(N)=O)C(=O)O)[C@H]1CC[C@H]2[C@@H]3CC[C@@H]4C[C@H](O)CC[C@]4(C)[C@H]3CC[C@]12C
< 3.50

* * *

Biological target: Ephrin type-A receptor 2 (Homo sapiens, UniProt P29317)
Assay: Antagonist activity at EphA2 in human PC3 cells assessed as inhibition of ephrin-A1-Fc-stimulated EphA2 phosphorylation pretreated for 20 mins by sandwich ELISA
Format: cell-based, PC-3
outcome_measure: pIC50
Just the number, please; pIC50 means minus log10 of the concentration in mol/L.

Requested field: pIC50. Item: C[C@H](CCC(=O)NCC(=O)O)[C@H]1CC[C@H]2[C@@H]3CC[C@@H]4C[C@H](O)CC[C@]4(C)[C@H]3CC[C@]12C [LITHOGLYCOCHOLATE]
3.86

* * *

Target: Ephrin type-A receptor 8 (Homo sapiens, UniProt P29322)
Sequence (P29322 whole entry, the tested form may be a part): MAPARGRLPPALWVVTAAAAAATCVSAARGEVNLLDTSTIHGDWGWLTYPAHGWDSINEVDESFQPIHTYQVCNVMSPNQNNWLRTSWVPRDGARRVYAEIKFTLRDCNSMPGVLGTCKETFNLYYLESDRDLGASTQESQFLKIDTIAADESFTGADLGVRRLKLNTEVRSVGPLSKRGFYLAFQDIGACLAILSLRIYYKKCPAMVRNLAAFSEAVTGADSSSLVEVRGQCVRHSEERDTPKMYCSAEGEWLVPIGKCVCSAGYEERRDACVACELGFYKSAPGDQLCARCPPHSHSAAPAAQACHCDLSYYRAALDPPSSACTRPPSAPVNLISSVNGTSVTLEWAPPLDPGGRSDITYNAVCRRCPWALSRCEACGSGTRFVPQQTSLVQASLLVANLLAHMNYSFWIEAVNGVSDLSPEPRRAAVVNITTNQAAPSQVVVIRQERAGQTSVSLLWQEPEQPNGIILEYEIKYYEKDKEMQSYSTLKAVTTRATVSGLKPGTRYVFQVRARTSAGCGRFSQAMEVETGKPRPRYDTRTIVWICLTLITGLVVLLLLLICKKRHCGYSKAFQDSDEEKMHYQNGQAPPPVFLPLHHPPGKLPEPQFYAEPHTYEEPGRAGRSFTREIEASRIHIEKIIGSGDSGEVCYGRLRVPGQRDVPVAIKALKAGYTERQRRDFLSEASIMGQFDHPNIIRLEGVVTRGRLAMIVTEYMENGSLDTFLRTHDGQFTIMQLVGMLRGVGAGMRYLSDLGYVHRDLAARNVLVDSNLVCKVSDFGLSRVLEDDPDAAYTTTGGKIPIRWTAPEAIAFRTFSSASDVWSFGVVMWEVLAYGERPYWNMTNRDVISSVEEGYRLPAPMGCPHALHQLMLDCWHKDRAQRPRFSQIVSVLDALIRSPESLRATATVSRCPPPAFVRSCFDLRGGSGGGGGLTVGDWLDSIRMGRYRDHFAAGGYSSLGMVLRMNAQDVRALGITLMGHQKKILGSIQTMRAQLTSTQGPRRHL
Assay: Displacement of ephrin-A1-Fc from EphA8 receptor Fc ectodomain (unknown origin) after 1 hr by ELISA
outcome_measure: pIC50
Just the number, please; pIC50 means minus log10 of the concentration in mol/L.

Record lookup: for Ephrin type-A receptor 8 (Homo sapiens, UniProt P29322), what pIC50 belongs to C[C@H](CCC(=O)N[C@@H](Cc1c[nH]c2ccccc12)C(=O)O)[C@H]1CC[C@H]2[C@@H]3CC[C@@H]4C[C@H](O)CC[C@]4(C)[C@H]3CC[C@]12C ?
5.82

* * *

Biological target: Ephrin type-B receptor 6 (Homo sapiens, UniProt O15197)
Sequence (O15197 whole entry): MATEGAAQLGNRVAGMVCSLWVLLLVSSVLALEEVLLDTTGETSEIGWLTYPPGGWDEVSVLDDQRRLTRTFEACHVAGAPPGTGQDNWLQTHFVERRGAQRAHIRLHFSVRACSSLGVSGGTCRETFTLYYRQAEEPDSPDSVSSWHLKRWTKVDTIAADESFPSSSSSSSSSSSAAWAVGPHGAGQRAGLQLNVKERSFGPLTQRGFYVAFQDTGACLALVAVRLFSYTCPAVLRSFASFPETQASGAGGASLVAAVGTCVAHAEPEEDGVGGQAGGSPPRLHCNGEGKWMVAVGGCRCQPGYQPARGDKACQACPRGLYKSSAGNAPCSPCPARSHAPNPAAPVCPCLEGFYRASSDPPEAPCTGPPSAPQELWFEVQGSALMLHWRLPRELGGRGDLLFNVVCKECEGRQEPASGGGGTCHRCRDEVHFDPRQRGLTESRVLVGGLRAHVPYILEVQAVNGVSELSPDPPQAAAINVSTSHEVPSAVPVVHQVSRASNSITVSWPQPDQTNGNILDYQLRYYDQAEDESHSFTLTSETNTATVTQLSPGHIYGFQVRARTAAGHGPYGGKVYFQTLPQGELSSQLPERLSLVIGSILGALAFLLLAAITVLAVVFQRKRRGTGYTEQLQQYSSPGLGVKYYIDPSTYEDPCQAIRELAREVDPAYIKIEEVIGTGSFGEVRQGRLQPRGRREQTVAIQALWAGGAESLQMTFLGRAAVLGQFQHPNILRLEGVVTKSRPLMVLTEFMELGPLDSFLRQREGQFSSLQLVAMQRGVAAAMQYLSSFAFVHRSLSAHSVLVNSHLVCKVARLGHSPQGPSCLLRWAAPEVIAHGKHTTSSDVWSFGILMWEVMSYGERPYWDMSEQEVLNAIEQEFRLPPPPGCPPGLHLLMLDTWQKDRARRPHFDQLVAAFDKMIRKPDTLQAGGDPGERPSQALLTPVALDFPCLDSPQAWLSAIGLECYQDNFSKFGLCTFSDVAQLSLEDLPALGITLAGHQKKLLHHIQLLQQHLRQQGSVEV
outcome_measure: IC50

Requested field: IC50. Item: C[C@H](CCC(=O)N[C@@H](Cc1c[nH]c2ccccc12)C(=O)O)[C@H]1CC[C@H]2[C@@H]3CC[C@@H]4C[C@H](O)CC[C@]4(C)[C@H]3CC[C@]12C
5.8 µM
